B1: library; a variant is named by its letters at N, in order (parent)
chain: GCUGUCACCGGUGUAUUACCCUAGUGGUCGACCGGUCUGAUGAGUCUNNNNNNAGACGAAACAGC

- Variants of: B1
- PROTOCOL_DESCRIPTION: normalized RNA/DNA level without ligand (relative to sTRSVctl = 100) (log10 (% of sTRSVctl)); ligand: hypoxanthine (xanthine aptamer); higher = less ribozyme self-cleavage, higher mRNA level
- SETTINGS: HEK293T, reporter: mCherry (pCS4076), ligand present: no
Measured normalized RNA/DNA level without ligand (log10), listed per entry for reference.
The answer should be written as a number, with no unit following it.

Below, each entry is followed by its recorded normalized RNA/DNA level without ligand (log10) result.
[
  {
    "VARIANT_DESIGNATION": "CGCCAC",
    "VALUE_REPORTED": 1.84
  },
  {
    "VARIANT_DESIGNATION": "CAACGC",
    "VALUE_REPORTED": 1.87
  },
  {
    "VARIANT_DESIGNATION": "GGCUGA",
    "VALUE_REPORTED": 1.87
  },
  {
    "VARIANT_DESIGNATION": "ACCGGC",
    "VALUE_REPORTED": 1.96
  },
  {
    "VARIANT_DESIGNATION": "CGCCAU",
    "VALUE_REPORTED": 1.87
  }
]

Provide only the value of recorded normalized RNA/DNA level without ligand (log10) for GGUUCG
1.69

Provide only the value of recorded normalized RNA/DNA level without ligand (log10) for CGACAC
1.75
